Biological target: GST-tagged K-Ras mutant / His-tagged hSOS1 (Homo sapiens, UniProt P01116)
Sequence (P01116 whole entry G12D, form open): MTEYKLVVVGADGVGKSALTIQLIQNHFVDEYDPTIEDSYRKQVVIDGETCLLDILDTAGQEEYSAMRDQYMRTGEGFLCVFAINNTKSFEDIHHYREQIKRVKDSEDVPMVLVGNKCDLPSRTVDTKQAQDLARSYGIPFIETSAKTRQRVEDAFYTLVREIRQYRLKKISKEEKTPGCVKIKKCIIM
Experiment: HTRF assay, K-Ras mutant / SOS1 interaction
Type: binding
Details: compound nos. 102-196, general methodology of example 5; read-out: IC50 against mutant Kras
Item-by-item account of IC50

Examples from the recorded data:
Compound	IC50
Nc1nc2c(-c3c(Cl)cc4c(N5CCNCC(F)(F)C5)nc(Oc5cccnc5C5CC5)nc4c3F)cccc2s1	> 500 nM
Nc1nc2c(-c3c(Cl)cc4c(N5CCNCC(O)C5)nc(OCC56CCCN5C[C@H](F)C6)nc4c3F)ccc(F)c2s1 (stereo partly shown)	< 500 nM
CN1CCC[C@H]1COc1nc(N2CCNCC(F)(F)C2)c2cc(Cl)c(-c3cccc4sc(N)nc34)c(OCc3ccccn3)c2n1	> 500 nM
CN1CCC[C@H]1COc1nc(N2CC3CNCC3C2)c2cc(Cl)c(-c3cccc4sc(N)nc34)c(F)c2n1 (stereo partly shown)	> 500 nM
CN1CCC[C@H]1COc1nc(N2CCCC3(CNC3)C2)c2cc(Cl)c(-c3cccc4sc(N)nc34)c(F)c2n1	> 500 nM

Please fill in: IC50 reported for "Cc1cc2c(N3CCNCC(F)(F)C3)nc(OC[C@@H]3CCCN3C)nc2c(F)c1-c1cccc2sc(N)nc12" = < 500 nM

Please fill in: IC50 reported for "CN1CCC[C@H]1COc1nc(N2CCCCC(F)(F)C2)c2cc(Cl)c(-c3cccn4nc(N)nc34)c(F)c2n1" = > 500 nM
